- experiment_description: plasmodial surface anion channel blockers, osmotic lysis – cell-based, P. falciparum Indochina, OD700, 2 h, primary screen (AID 1155);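 also: lysis reports solute entry through the parasite surface anion channel PSAC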
- condition_context: P. falciparum Indochina infected erythrocytes, called active from +8 up or from −8 down
Activity calls are given as the source filed them.
Parameter call: string, one of Y = active, N = inactive

INSERT INTO results (compound, discrete_label) VALUES
  ('COc1ccccc1CN1C(=O)c2ccccc2[C@@H](C(=O)NCc2ccccc2)[C@@H]1c1ccc(CO)cc1', 'N'),
  ('C=CCN1C(=O)[C@]2(Cc3ccccc3)N=C(c3ccc(OCCCO)cc3)O[C@@H]2c2ccccc21', 'Y'),
  ('CCN(CC)c1ccc(N2CC=CC34O[C@@H]5C=CCOC(=O)[C@@H]5[C@H]3C(=O)N(CCCCCCO)[C@@H]4C2=O)cc1 (stereo not given in full)', 'N'),
  ('CCC(CC)C(O)C1C=CC2C(=O)N(c3ccccc3)C(=O)C2N1Nc1ccccc1 (stereo not given)', 'N'),
  ('COCCOC(=O)N1C(=O)[C@@]2(c3cc(C#CCCO)ccc31)[C@H](c1ccc(OCCO)cc1)N1[C@H](c3ccccc3)[C@H](c3ccccc3)OC(=O)[C@H]1[C@@H]2C(N)=O', 'N'),
  ('COc1ccccc1CN1C(=O)c2ccccc2[C@@]2(Cc3ccccc3N(CCCN(C)C)C2=O)[C@@H]1c1ccc(CO)cc1', 'N'),
  ('COC(=O)[C@@]1(Cc2ccc(OC)cc2)[C@H]2c3cc(C(=O)N4CCCC4)n(CCc4ccc(O)c(O)c4)c3C[C@H]2CN1C(=O)c1ccccc1', 'N'),
  ('CO[C@H]1O[C@H](CO)[C@@H](OC(=O)Nc2ccccc2)[C@@H]2OC(=O)[C@@H](Cc3ccc4ccccc4c3)C/C=C/C[C@H](Cc3ccc4ccccc4c3)C(=O)O[C@@H]12', 'N'),
  ('COCCCNC(=O)[C@@]1(CCS(=O)(=O)c2ccccc2)N=C(c2ccc(OCCCO)cc2)O[C@H]1c1ccccc1N=[N+]=[N-]', 'Y'),
  ('COCCCNC(=O)[C@@H]1c2ccccc2C(=O)N(Cc2ccccc2OC)[C@H]1c1ccc(CO)cc1', 'N');

Which outcome was entered for the compound O=C1O[C@H](c2ccccc2)[C@H](c2ccccc2)N2[C@H]1[C@@H](C(=O)N1CCN(c3ncccn3)CC1)[C@]1(C(=O)Nc3ccc(C#CC4=CCCCC4)cc31)[C@H]2c1ccccc1OCCO in this test?
N

Which outcome was entered for the compound C=CCN(Cc1ccccc1)C(=O)C(c1cccs1)N(C(=O)/C=C\C(=O)O)c1ccc(CCOCCO)cc1 (stereo not given) in this test?
N

Which outcome was entered for the compound [N-]=[N+]=Nc1ccccc1C[C@]1(C(=O)N2CCCCC2)COC(c2ccc(OCCCO)cc2)=N1 in this test?
Y

Which outcome was entered for the compound COC(=O)C(CC#Cc1ccc2c(c1)[C@]1(C(=O)N2)[C@H](c2ccccc2OCCO)N2[C@H](c3ccccc3)[C@H](c3ccccc3)OC(=O)[C@H]2[C@@H]1C(=O)O)C(=O)OC in this test?
N

Which outcome was entered for the compound COC(=O)C(CC#Cc1ccc2c(c1)[C@]1(C(=O)N2)[C@H](c2ccc(O)cc2)N2[C@H](c3ccccc3)[C@H](c3ccccc3)OC(=O)[C@H]2[C@@H]1C(=O)N1CCN(c2ncccn2)CC1)C(=O)OC in this test?
N

Which outcome was entered for the compound COCC(=C=CC[C@@H](O)c1ccc(OCCO)cc1)C[C@@H](O)c1ccccn1 in this test?
N

Which outcome was entered for the compound O=C1C2C=CC(C(O)c3ccc4c(c3)OCO4)N(Nc3ccc([N+](=O)[O-])cc3)C2C(=O)N1c1ccccc1 (stereo not given) in this test?
N

Which outcome was entered for the compound COc1ccc(C(O)C2C=CC3C(=O)N(C)C(=O)C3N2N(c2ccccc2)c2ccccc2)c2ccccc12 (stereo not given) in this test?
N

Which outcome was entered for the compound C=C(/C(=C/C[C@H](OC(C)=O)c1ccc(OCCO)cc1)c1cc(C(=O)OC)ccc1OC)C(C)C in this test?
N

Which outcome was entered for the compound COC(=O)[C@@]1(Cc2ccc(OC)cc2)[C@H]2c3cc(C(=O)N4CCCC4)n(CCSCCO)c3C[C@H]2CN1C(=O)c1ccccc1 in this test?
N

Which outcome was entered for the compound CC(C)N1CC=CC23O[C@@H]4C=CCOC(=O)[C@@H]4[C@H]2C(=O)N(CCCCCO)[C@@H]3C1=O (stereo not given in full) in this test?
N

Which outcome was entered for the compound COCCOC(=O)N1C(=O)[C@@]2(c3cc(C#Cc4ccc(OC)cc4)ccc31)[C@H](c1ccc(O)cc1)N1[C@H](c3ccccc3)[C@H](c3ccccc3)OC(=O)[C@H]1[C@@H]2C(=O)Nc1nc2ccccc2s1 in this test?
N

Which outcome was entered for the compound CCCNC(=O)[C@@H]1c2ccccc2C(=O)N(Cc2ccccc2OC)[C@H]1c1ccc(CO)cc1 in this test?
N

Which outcome was entered for the compound [N-]=[N+]=NCc1ccccc1[C@H]1OC(c2ccc(OCCCO)cc2)=N[C@@]1(Cc1ccccc1)C(=O)N1CCCCC1 in this test?
Y

Which outcome was entered for the compound COc1cc2c(cc1OC)CN(C(=O)[C@H]1[C@@H]3C(=O)O[C@@H](c4ccccc4)[C@@H](c4ccccc4)N3[C@@H](c3ccccc3OCCO)[C@]13C(=O)Nc1ccc(C#CCCO)cc13)CC2 in this test?
N

Which outcome was entered for the compound COC(=O)[C@@]1(Cc2ccc(OC)cc2)[C@H]2c3cc(C(=O)N4CCCC4)n(Cc4nc5ccccc5[nH]4)c3C[C@H]2CN1C(=O)c1ccccc1 in this test?
N

Which outcome was entered for the compound OB1C=CCC(CCc2ccccc2)O1 (stereo not given) in this test?
N
